Entries annotated with measured IC50
# System: Human immunodeficiency virus 1
# MEASUREMENT_NOTES: Antiviral activity against wild type HIV-1 LAI infected in human MT4 cells assessed as inhibition of viral replication after 5 days by MTT assay in presence of 40% human serum
# Format: functional, organism-based
# CONDITION_CONTEXT: Human immunodeficiency virus 1, LAI, MT4, 120 h
OBSERVED_PROPERTY: IC50 (µM)

                                 cpd_smiles  unit_tag  reported
0  N#Cc1cc(Cl)cc(Oc2c(COCc3ccncc3)c[nH]c(=O)c2Br)c1        µM      0.01
1  Cc1[nH]c(=O)c(Br)c(Oc2cc(Cl)cc(C#N)c2)c1Cc1ccccc1        µM     0.032
2  Cc1[nH]c(=O)c(Cl)c(Oc2cc(Cl)cc(C#N)c2)c1CCOc1ccccc1        µM     0.013
3  Cc1[nH]c(=O)c(Cl)c(Oc2cc(Cl)cc(C#N)c2)c1CCCc1ccncc1        µM     0.005
4  N#Cc1cc(Cl)cc(Oc2c(F)c(CCc3ccncc3)[nH]c(=O)c2Br)c1        µM     0.023
